- ASSAY PROTOCOL: Diclofenac plasma pharmacokinetics in chickens after IV dosing (HPLC, non-compartmental)
- SETUP CONDITIONS: in vivo, iv, AUClast, geometric mean, test group (CYP inhibitor), all birds
PROPERTY: AUC(0-t) (ng·h/mL)
Numbers only; they are read as ng·h/mL.

Fill in: AUC(0-t) of O=C(O)Cc1ccccc1Nc1c(Cl)cccc1Cl [diclofenac, diclofenac sodium] is ___ 500

----------
- ASSAY PROTOCOL: Diclofenac plasma pharmacokinetics in chickens after IV dosing (HPLC, non-compartmental)
- SETUP CONDITIONS: in vivo, iv, T1/2, control group (diclofenac IV alone), birds alive; GM
PROPERTY: half-life

I have this compound here, O=C(O)Cc1ccccc1Nc1c(Cl)cccc1Cl [diclofenac, diclofenac sodium] , and I need its recorded half-life. 47.4 min

----------
- ASSAY PROTOCOL: Diclofenac plasma pharmacokinetics in chickens after IV dosing (HPLC, non-compartmental)
- SETUP CONDITIONS: in vivo, iv, AUClast, geometric mean, control group, all birds
PROPERTY: AUC(0-t) (ng·h/mL)
Express it in ng·h/mL; write the number only.

Item O=C(O)Cc1ccccc1Nc1c(Cl)cccc1Cl [diclofenac, diclofenac sodium] has what recorded AUC(0-t)? 400

----------
- ASSAY PROTOCOL: Diclofenac plasma pharmacokinetics in chickens after IV dosing (HPLC, non-compartmental)
- SETUP CONDITIONS: in vivo, iv, Vss, test group (fluconazole + diclofenac IV), birds dead; GM
PROPERTY: Vd (L/kg)
Reply numerically in L/kg, unit not repeated.

I am curious: what Vd value has been reported for O=C(O)Cc1ccccc1Nc1c(Cl)cccc1Cl [diclofenac, diclofenac sodium] ? 1.17

----------
- ASSAY PROTOCOL: Diclofenac plasma pharmacokinetics in chickens after IV dosing (HPLC, non-compartmental)
- SETUP CONDITIONS: in vivo, iv, AUCinf, test group (fluconazole + diclofenac IV), birds dead; GM, dose corrected to 1 mg/kg
PROPERTY: AUC(0-inf) (ng·h/mL)
Your answer is read as ng·h/mL, so omit the unit and give the number.

Need AUC(0-inf), item O=C(O)Cc1ccccc1Nc1c(Cl)cccc1Cl [diclofenac, diclofenac sodium] 1130

----------
- ASSAY PROTOCOL: Diclofenac plasma pharmacokinetics in chickens after IV dosing (HPLC, non-compartmental)
- SETUP CONDITIONS: in vivo, iv, Tmax, control group (diclofenac IV alone), birds dead; GM
PROPERTY: Tmax (min)
The response must be a number in min with no trailing unit.

Entry O=C(O)Cc1ccccc1Nc1c(Cl)cccc1Cl [diclofenac, diclofenac sodium] : reported Tmax = ? 24

----------
- ASSAY PROTOCOL: Diclofenac plasma pharmacokinetics in chickens after IV dosing (HPLC, non-compartmental)
- SETUP CONDITIONS: in vivo, iv, clearance, geometric mean, control group, all birds
PROPERTY: clearance (mL/min/kg)
The reply should be a number in mL/min/kg, with the unit left off.

What measured clearance goes with O=C(O)Cc1ccccc1Nc1c(Cl)cccc1Cl [diclofenac, diclofenac sodium] ? 26.5

----------
- ASSAY PROTOCOL: Diclofenac plasma pharmacokinetics in chickens after IV dosing (HPLC, non-compartmental)
- SETUP CONDITIONS: in vivo, iv, T1/2, test group (fluconazole + diclofenac IV), birds dead; GM
PROPERTY: half-life (min)
Report as a plain number; the unit min is understood.

Would you kindly share the measured half-life for O=C(O)Cc1ccccc1Nc1c(Cl)cccc1Cl [diclofenac, diclofenac sodium] ? 57.6

----------
- ASSAY PROTOCOL: Diclofenac plasma pharmacokinetics in chickens after IV dosing (HPLC, non-compartmental)
- SETUP CONDITIONS: in vivo, iv, AUClast, test group (fluconazole + diclofenac IV), birds alive; GM, dose corrected to 1 mg/kg
PROPERTY: AUC(0-t) (ng·h/mL)
# unit: ng·h/mL | format: bare number

Requested field: AUC(0-t). Item: O=C(O)Cc1ccccc1Nc1c(Cl)cccc1Cl [diclofenac, diclofenac sodium] 420

----------
- ASSAY PROTOCOL: Diclofenac plasma pharmacokinetics in chickens after IV dosing (HPLC, non-compartmental)
- SETUP CONDITIONS: in vivo, iv, 1 mg/kg, AUCinf, control group (diclofenac IV alone), birds dead; GM, dose corrected to 1 mg/kg
PROPERTY: AUC(0-inf) (ng·h/mL)
Report as a plain number; the unit ng·h/mL is understood.

Fill blank: measured AUC(0-inf) of the molecule O=C(O)Cc1ccccc1Nc1c(Cl)cccc1Cl [diclofenac, diclofenac sodium] is ____. 760

----------
- ASSAY PROTOCOL: Diclofenac plasma pharmacokinetics in chickens after IV dosing (HPLC, non-compartmental)
- SETUP CONDITIONS: in vivo, iv, 1 mg/kg, AUClast, control group (diclofenac IV alone), birds dead; GM, dose corrected to 1 mg/kg
PROPERTY: AUC(0-t) (ng·h/mL)
Provide only the numeric value, understood in ng·h/mL.

What AUC(0-t) value was documented for this molecule, O=C(O)Cc1ccccc1Nc1c(Cl)cccc1Cl [diclofenac, diclofenac sodium] ? 310

----------
- ASSAY PROTOCOL: Diclofenac plasma pharmacokinetics in chickens after IV dosing (HPLC, non-compartmental)
- SETUP CONDITIONS: in vivo, iv, 1 mg/kg, Cmax, control group (diclofenac IV alone), birds dead; GM, dose corrected to 1 mg/kg
PROPERTY: Cmax (ng/mL)
Answer format: numeric, ng/mL implied, no suffix.

Returns the measured Cmax for the input compound. Input: O=C(O)Cc1ccccc1Nc1c(Cl)cccc1Cl [diclofenac, diclofenac sodium] 240
